test system: proteases secreted by C. albicans ATCC 10231; test: in vitro; details: Candida albicans, C. albicans ATCC 10231 culture supernatant, pH 8
Where a SMILES comes first, the peptide text is derived from it. [ ]: non-standard residue; d: D form. hArg = N=C(N)NCCCC[C@H](N)C(=O)O; 2Thi = N[C@@H](Cc1cccs1)C(=O)O; Dab = NCC[C@H](N)C(=O)O; Dap = NC[C@H](N)C(=O)O
Endpoint Name: remaining at 24 h, 0.5 mg/mL (%)
Provide the reading as a plain figure in %.

CC(C)C[C@H](NC(=O)[C@H](Cc1ccc(O)cc1)NC(=O)[C@H](CCN)NC(=O)[C@H](CC(C)C)NC(=O)[C@H](CC(C)C)NC(=O)[C@H](CCN)NC(=O)[C@H](CN)NC(=O)[C@H](Cc1cccs1)NC(=O)[C@H](CC(C)C)NC(=O)[C@H](CCCNC(=N)N)NC(=O)[C@@H](N)CCN)C(=O)N[C@@H](CCCCNC(=N)N)C(=O)N[C@@H](CCN)C(=O)N[C@@H](Cc1ccccc1)C(N)=O [UP15] (H-[Dab]RL[2Thi][Dap][Dab]LL[Dab]YL[hArg][Dab]F-NH2) ... 21.1

Turning now to a further molecule:
[Q] Query remaining at 24 h, 0.5 mg/mL for CC(C)C[C@H](NC(=O)[C@H](Cc1ccc(O)cc1)NC(=O)[C@H](CCN)NC(=O)[C@H](CC(C)C)NC(=O)[C@H](CC(C)C)NC(=O)[C@H](CCN)NC(=O)[C@H](CCN)NC(=O)[C@H](Cc1ccccc1)NC(=O)[C@H](CC(C)C)NC(=O)[C@H](CCCCNC(=N)N)NC(=O)[C@@H](N)CCN)C(=O)N[C@@H](CCCCNC(=N)N)C(=O)N[C@@H](CCN)C(=O)N[C@@H](Cc1ccccc1)C(N)=O [UP13] (H-[Dab][hArg]LF[Dab][Dab]LL[Dab]YL[hArg][Dab]F-NH2)
[A] 34

====

test system: human erythrocytes; assay: Hemolytic activity assay; assay type: cell-based; conditions: 128 μM; human RBC in PB, 37°C, 1 h; OD420; total lysis control 0.1% SDS; three technical replicates
Where a SMILES comes first, the peptide text is derived from it. [ ]: non-standard residue; d: D form. hArg = N=C(N)NCCCC[C@H](N)C(=O)O; 2Thi = N[C@@H](Cc1cccs1)C(=O)O; Dab = NCC[C@H](N)C(=O)O; Dap = NC[C@H](N)C(=O)O; Aib = CC(C)(N)C(=O)O
A collection of compounds and their measured Hemolysis rate (%)
Provide the reading as a plain figure in %.

CC(C)C[C@H](NC(=O)[C@H](Cc1ccc(O)cc1)NC(=O)[C@H](CCCCN)NC(=O)[C@H](CC(C)C)NC(=O)[C@H](CC(C)C)NC(=O)[C@H](CCCCN)NC(=O)[C@H](CCCCN)NC(=O)[C@H](Cc1ccccc1)NC(=O)[C@H](CC(C)C)NC(=O)[C@H](CCCNC(=N)N)NC(=O)C(C)(C)N)C(=O)N[C@@H](CCCNC(=N)N)C(=O)N[C@@H](CCCCN)C(=O)N[C@@H](Cc1cccs1)C(N)=O [UP09] (H-[Aib]RLFKKLLKYLRK[2Thi]-NH2; N-terminus assumed) ... 95.99

Turning now to a further compound:
[Q] Query Hemolysis rate (%) for CC(C)C[C@H](NC(=O)[C@H](Cc1ccc(O)cc1)NC(=O)[C@H](CCN)NC(=O)[C@H](CC(C)C)NC(=O)[C@H](CC(C)C)NC(=O)[C@H](CN)NC(=O)[C@H](CN)NC(=O)[C@H](Cc1ccccc1)NC(=O)[C@H](CC(C)C)NC(=O)[C@H](CCCCNC(=N)N)NC(=O)[C@@H](N)CN)C(=O)N[C@@H](CCCCNC(=N)N)C(=O)N[C@@H](CCN)C(=O)N[C@@H](Cc1ccccc1)C(N)=O [UP14] (H-[Dap][hArg]LF[Dap][Dap]LL[Dab]YL[hArg][Dab]F-NH2)
[A] 74.68

====

test system: proteases secreted by A. baumannii ATCC 19606; assay: in vitro; details: Acinetobacter baumannii, A. baumannii ATCC 19606 culture supernatant, pH 8
Where a SMILES comes first, the peptide text is derived from it. [ ]: non-standard residue; d: D form.
A collection of compounds and their measured remaining at 24 h, 0.5 mg/mL
Provide the reading as a plain figure in %.

CC(C)C[C@H](NC(=O)[C@H](Cc1ccc(O)cc1)NC(=O)[C@H](CCCCN)NC(=O)[C@H](CC(C)C)NC(=O)[C@H](CC(C)C)NC(=O)[C@@H](CCCCN)NC(=O)[C@@H](CCCCN)NC(=O)[C@H](Cc1ccccc1)NC(=O)[C@H](CC(C)C)NC(=O)[C@@H](CCCNC(=N)N)NC(=O)[C@H](N)CCCCN)C(=O)N[C@@H](CCCNC(=N)N)C(=O)N[C@H](CCCCN)C(=O)N[C@@H](Cc1ccccc1)C(N)=O [DP05] (H-[dK][dR]LF[dK][dK]LLKYLR[dK]F-NH2) ... 31.7

Turning now to a further compound:
[Q] Query remaining at 24 h, 0.5 mg/mL for CC(C)C[C@H](NC(=O)[C@H](CC(C)C)NC(=O)[C@@H](CCCCN)NC(=O)[C@@H](CCCCN)NC(=O)[C@H](Cc1ccccc1)NC(=O)[C@H](CC(C)C)NC(=O)[C@@H](CCCNC(=N)N)NC(=O)[C@H](N)CCCCN)C(=O)N[C@H](CCCCN)C(=O)N[C@@H](Cc1ccc(O)cc1)C(=O)N[C@@H](CC(C)C)C(=O)N[C@H](CCCNC(=N)N)C(=O)N[C@H](CCCCN)C(=O)N[C@@H](Cc1ccccc1)C(N)=O [DP06] (H-[dK][dR]LF[dK][dK]LL[dK]YL[dR][dK]F-NH2)
[A] 63.5
